tested on: Hs-578T; assay: NCI tumour cell line growth inhibition, 48 h
Calls of active or inactive are those of the source. Rule as the data show it: active = GI50 up to about 1.1 µM and inactive = higher.

- COMPOUND: "O=C(CNc1c(Cl)cccc1Cl)NC1C=Cc2ccc(S(=O)(=O)Nc3c(Cl)cccc3Cl)cc2C1=O (configuration not stated)"
  TARGET OR TEST SYSTEM: "Hs-578T"
  GI50: "6.71 µM (inactive)"
- COMPOUND: "O=CC1OC(=O)c2cc(O)c(O)c(O)c2-c2c(cc(O)c(O)c2O)C(=O)OC1C1OC(=O)c2cc(O)c(O)c(O)c2-c2c(O)c(O)c3oc(=O)c4c(c(O)c(O)c5oc(=O)c2c3c54)-c2c(cc(O)c(O)c2O)C(=O)OCC1O (configuration not stated)"
  TARGET OR TEST SYSTEM: "Hs-578T"
  GI50: "44.7 µM (inactive)"
- COMPOUND: "O=c1cc(N2CCCC2)[nH]c(=O)n1-c1ccc(Cl)cc1"
  TARGET OR TEST SYSTEM: "Hs-578T"
  GI50: "> 100 µM (inactive)"
- COMPOUND: "N#C/C(C(=S)NCc1ccccc1)=C(/N)N1CCCC1"
  TARGET OR TEST SYSTEM: "Hs-578T"
  GI50: "> 100 µM (inactive)"
- COMPOUND: "Cc1ccc(S(=O)(=O)N/N=C2\\C3CC4CC(C3)C2C4)cc1 (configuration not stated)"
  TARGET OR TEST SYSTEM: "Hs-578T"
  GI50: "> 100 µM (inactive)"
- COMPOUND: "C/C=C/[C@@]1(OC(=O)c2ccccc2)C[C@@H]2CCCC[C@@H]21"
  TARGET OR TEST SYSTEM: "Hs-578T"
  GI50: "13.8 µM (inactive)"
- COMPOUND: "CCOC(=O)Cn1c(C)nc2nn(Cc3ccccc3)cc2c1=O"
  TARGET OR TEST SYSTEM: "Hs-578T"
  GI50: "> 100 µM (inactive)"

----------
test system: COLO 205; assay: NCI tumour cell line growth inhibition, 48 h
Active and inactive are the calls of the source. Cut-off read from the data, not from the text of the source: active = GI50 up to about 1.1 µM and inactive = higher.

- COMPOUND: "COC(=O)C(=O)C(C(=O)C(=O)Nc1cccc(C(C)=O)c1)c1nc2ccc([N+](=O)[O-])cc2nc1O (stereo not given)"
  GI50: "> 100 µM (inactive)"
- COMPOUND: "Nc1ccc2c(c1)C1=NNC(=O)CC1C2 (stereo not given)"
  GI50: "> 100 µM (inactive)"
- COMPOUND: "O=C(O)/C(=C/C=C/c1ccccc1)c1csc(-c2nc(/C(=C\\C=C\\c3ccccc3)C(=O)O)cs2)n1"
  GI50: "22.3 µM (inactive)"
- COMPOUND: "CN(Cc1c2ccccc2cc2ccccc12)S(=O)(=O)c1ccc(-c2c3nc(c(-c4ccc(S(=O)(=O)N(C)Cc5c6ccccc6cc6ccccc56)cc4)c4ccc([nH]4)c(-c4ccc(S(=O)(=O)N(C)Cc5c6ccccc6cc6ccccc56)cc4)c4nc(c(-c5ccc(S(=O)(=O)N(C)Cc6c7ccccc7cc7ccccc67)cc5)c5ccc2[nH]5)C=C4)C=C3)cc1"
  GI50: "> 100 µM (inactive)"
- COMPOUND: "CC1OC(OC2C(OC(=O)[C@]34CCC(C)(C)CC3C3=CCC5[C@@]6(C)C[C@H](O)[C@H](OC7OC(COC8OC(CO)C(O)C(O)C8O)C(O)C(O)C7O)[C@@](C)(C(=O)O)C6CC[C@@]5(C)C3(C)CC4)OCC(O)C2O)C(O)C(O)C1OC1OCC(O)C(O)C1O (stereo not given in full)"
  GI50: "> 100 µM (inactive)"
- COMPOUND: "C=C1C(=O)[C@@]23CC[C@@H]4[C@@]5(C)CCC[C@@]4(OC5=O)[C@@]2(C)CC[C@@H]1C3"
  GI50: "2.11 µM (inactive)"
- COMPOUND: "NNC(=O)CCC(NS(=O)(=O)c1ccc(Cl)cc1)C(=O)NN (stereo not given)"
  GI50: "> 100 µM (inactive)"
- COMPOUND: "O=[N+]([O-])c1cc(I)cc(/C=N/NS(=O)(=O)c2ccc(F)cc2)c1O"
  GI50: "18.3 µM (inactive)"
- COMPOUND: "O=C1CCCCCCCCCCOC(=O)CCCCCCCCCCO1"
  GI50: "> 100 µM (inactive)"
- COMPOUND: "CCOC(=O)c1csc(NC(=O)CN2CCCC2)n1"
  GI50: "> 100 µM (inactive)"

----------
test system: OVCAR-4; assay: NCI tumour cell line growth inhibition, 48 h
Active and inactive are the calls of the source. No stated cut-off is given here; in the data, active = GI50 up to about 1.1 µM and inactive = higher.

- COMPOUND: "COC(=O)c1c2c(c3[nH]c4ccccc4c3c1C(=O)OC)C(=O)C1=C(C2=O)C2(Cl)C(Cl)C(Cl)C1(Cl)C2(Cl)Cl (stereo not given)"
  TARGET OR TEST SYSTEM: "OVCAR-4"
  GI50: "1.84 µM (inactive)"
- COMPOUND: "Cc1ccc(C(O)/C(=N/N)c2nc3ccc([N+](=O)[O-])cc3nc2O)cc1 (stereo not given)"
  TARGET OR TEST SYSTEM: "OVCAR-4"
  GI50: "> 100 µM (inactive)"
- COMPOUND: "Cc1ccc(S(=O)(=O)C2c3nc4ccccc4cc3-c3nc4ccccc4nc32)cc1 (stereo not given)"
  TARGET OR TEST SYSTEM: "OVCAR-4"
  GI50: "> 100 µM (inactive)"
- COMPOUND: "N#Cc1c(-c2ccccc2)c(CN2CCCCC2)c(=O)n2c1[nH]c1ccccc12"
  TARGET OR TEST SYSTEM: "OVCAR-4"
  GI50: "46.3 µM (inactive)"
- COMPOUND: "N#CC(C(=O)C(=O)NCCCNC(=O)C(=O)C(C#N)c1ccccc1)c1ccccc1 (stereo not given)"
  TARGET OR TEST SYSTEM: "OVCAR-4"
  GI50: "> 100 µM (inactive)"

----------
system: RXF 631; assay: NCI tumour cell line growth inhibition, 48 h
Active and inactive are the calls of the source. Cut-off read from the data, not from the text of the source: active = GI50 up to about 1.1 µM and inactive = higher.
Outcome codes: true for active, false for inactive

- COMPOUND: "CN(C)CC1CCCC/C1=N/O (centres undefined)"
  ASSIGNED CLASS: "false"
- COMPOUND: "O=[N+]([O-])c1cc(I)cc(/C=N/NS(=O)(=O)c2ccc(F)cc2)c1O"
  ASSIGNED CLASS: "false"
- COMPOUND: "O=C(Cc1nc2ccccc2c(=O)n1-c1ccccc1Cl)c1ccncc1"
  ASSIGNED CLASS: "false"
- COMPOUND: "COC(=O)C1=C(C(=O)OC)C2(C)OC1C(=O)C21CC1 (centres undefined)"
  ASSIGNED CLASS: "false"
- COMPOUND: "CC(=O)/C(=C\\C1=CCCO1)C(=O)Nc1ccccc1C"
  ASSIGNED CLASS: "false"
- COMPOUND: "O=C1c2ccc3c4ccccc4n(Cc4ccccc4)c3c2C(=O)N1c1ccccc1"
  ASSIGNED CLASS: "false"
- COMPOUND: "C=C[C@@]12CCCCC1C/C(=C(/O)OC)C(=O)C2 (some centres undefined)"
  ASSIGNED CLASS: "false"
- COMPOUND: "C[C@H]1CCC/C=C/[C@@H]2C[C@H](O)C[C@H]2[C@H](O)/C=C/C(=O)O1"
  ASSIGNED CLASS: "true"
- COMPOUND: "O=C1C2C3SC(c4cc5ccccc5cc43)C2C(=O)N1c1ccccc1 (centres undefined)"
  ASSIGNED CLASS: "false"
- COMPOUND: "O=C(Nc1ccc(C(F)(F)F)cc1[N+](=O)[O-])C(=O)C1NC(=S)NC1=O (centres undefined)"
  ASSIGNED CLASS: "false"
- COMPOUND: "COc1ccc(N2C(=O)/C(=C/c3ccc(N(CCC#N)CCC#N)cc3C)N=C2/C=C\\c2ccccc2)cc1"
  ASSIGNED CLASS: "false"
- COMPOUND: "Cc1ccc(C(O)(c2ccc(C)cc2)c2ccccn2)cc1"
  ASSIGNED CLASS: "false"
- COMPOUND: "O=C(Cc1nc2ccccc2s1)C(=O)Nc1ccc(Cl)cc1Cl"
  ASSIGNED CLASS: "false"
- COMPOUND: "Cc1ccc(NC(=O)CCC(=O)C2CC(=O)CCC2=O)cc1C (centres undefined)"
  ASSIGNED CLASS: "false"

----------
test system: HOP-18; test: NCI tumour cell line growth inhibition, 48 h
Active and inactive are the calls of the source. Rule as the data show it: active = GI50 up to about 1.1 µM and inactive = higher.
Outcome codes: Y = active, N = inactive

- COMPOUND: "CCOC(=O)CC(NCc1ccc(/N=C/c2nc3ccc(C(F)(F)F)cc3nc2-c2ccccc2)cc1)C(=O)OCC (stereo not given)"
  TARGET OR TEST SYSTEM: "HOP-18"
  ASSIGNED CLASS: "N"
- COMPOUND: "CC(C)(C)CC(C)(C)c1ccc(OCCOCC[N+](C)(C)Cc2ccccc2)cc1 [BENZETHONIUM CHLORIDE]"
  TARGET OR TEST SYSTEM: "HOP-18"
  ASSIGNED CLASS: "N"
- COMPOUND: "CCCCNC1=C(C(=O)OCC)C(=O)CO1"
  TARGET OR TEST SYSTEM: "HOP-18"
  ASSIGNED CLASS: "N"
- COMPOUND: "OCn1nc2c(C3OCCO3)cc3ccccc3n2c1=S"
  TARGET OR TEST SYSTEM: "HOP-18"
  ASSIGNED CLASS: "N"
- COMPOUND: "COc1ccc(Nc2nnc(-c3nsc4ccccc34)s2)cc1"
  TARGET OR TEST SYSTEM: "HOP-18"
  ASSIGNED CLASS: "Y"
